Measured viability, T/C accompanies every entry in the list below.
test system: 598228-144-R-J1-PDC complex spheroid viability; assay: Anticancer human tumor 598228-144-R-J1-PDC patient-derived serous endometrial adenocarcinoma cell line growth inhibition [GQUAD]; settings: second compound 10 µM; first compound 10 µM; hits give low values;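 also: spheroids exposed to the agents for one week before reading; percent of vehicle DMSO control viability so 100% = untreated growth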

*Q* // returns reported viability, T/C for input CC(C)(O)C1CCC(Nc2ccc3ncc(-c4cccc(C(F)(F)F)c4)n3n2)CC1 (stereo not given) + Cc1cnc(CNC(=O)c2c(=O)c3ccc(N4CCCN(C)CC4)nc3n3c2sc2ccccc23)cn1
*A* 5.96%

Next:
*Q* // returns reported viability, T/C for input COc1cc(C2c3cc4c(cc3C(OC3OC5COC(C)OC5C(O)C3O)C3COC(=O)C23)OCO4)cc(OC)c1O (stereo not given) + CN(C)c1ccc(Nc2c3ccc(NC(=O)CCN4CCCC4)cc3nc3cc(NC(=O)CCN4CCCC4)ccc23)cc1
*A* 34.9%

*Q* // returns reported viability, T/C for input CCCS(=O)(=O)Nc1ccc(F)c(C(=O)c2c[nH]c3ncc(-c4ccc(Cl)cc4)cc23)c1F + CN(C)c1ccc(Nc2c3ccc(NC(=O)CCN4CCCC4)cc3nc3cc(NC(=O)CCN4CCCC4)ccc23)cc1
*A* 19.2%

*Q* // returns reported viability, T/C for input CC(=O)O[C@H]1C(=O)[C@@]2(C)[C@H]([C@H](OC(=O)c3ccccc3)[C@]3(O)C[C@H](OC(=O)[C@H](O)[C@@H](NC(=O)c4ccccc4)c4ccccc4)C(C)=C1C3(C)C)[C@]1(OC(C)=O)CO[C@@H]1C[C@@H]2O + Cc1cnc(CNC(=O)c2c(=O)c3ccc(N4CCCN(C)CC4)nc3n3c2sc2ccccc23)cn1
*A* 12.1%

*Q* // returns reported viability, T/C for input CC(C)(O)C1CCC(Nc2ccc3ncc(-c4cccc(C(F)(F)F)c4)n3n2)CC1 (stereo not given) + CN(C)c1ccc(Nc2c3ccc(NC(=O)CCN4CCCC4)cc3nc3cc(NC(=O)CCN4CCCC4)ccc23)cc1
*A* 16.6%

*Q* // returns reported viability, T/C for input O=C(NO)c1cnc(N2CCN(S(=O)(=O)c3ccc4ccccc4c3)CC2)nc1 + CN(C)c1ccc(Nc2c3ccc(NC(=O)CCN4CCCC4)cc3nc3cc(NC(=O)CCN4CCCC4)ccc23)cc1
*A* 0.34%

*Q* // returns reported viability, T/C for input CC(C)n1c(=O)n(C)c2cnc3cc(F)c(-c4ccc(OCCCN5CCCCC5)nc4)cc3c21 + CN(C)c1ccc(Nc2c3ccc(NC(=O)CCN4CCCC4)cc3nc3cc(NC(=O)CCN4CCCC4)ccc23)cc1
*A* 5.05%

*Q* // returns reported viability, T/C for input CC(C)(O)C1CCC(Nc2ccc3ncc(-c4cccc(C(F)(F)F)c4)n3n2)CC1 (stereo not given) + Cc1[nH]c2ccc(F)cc2c1-c1nc2c3cccnc3c3ncccc3c2[nH]1
*A* 30.7%

*Q* // returns reported viability, T/C for input COc1ccc([C@@H](O)c2cc(-c3ncnc4cc(N5CCOCC5)ccc34)c(F)cc2Cl)nn1 + CN(C)c1ccc(Nc2c3ccc(NC(=O)CCN4CCCC4)cc3nc3cc(NC(=O)CCN4CCCC4)ccc23)cc1
*A* 20.1%

*Q* // returns reported viability, T/C for input CC1COCCN1c1cc(-c2ccnn2C)c2ccnc(-c3ccn[nH]3)c2n1 (stereo not given) + Cc1cnc(CNC(=O)c2c(=O)c3ccc(N4CCCN(C)CC4)nc3n3c2sc2ccccc23)cn1
*A* 8.07%
